test: In vitro plasma stability, monkey plasma; conditions: Table 2; prodrug 10 μM, 60 min incubation at 37° C.; values read as % prodrug remaining
EXPERIMENTAL ENDPOINT: PLASMA STABILITY Monkey (%)

>  <SMILES ENTRY>
Cc1oc(=O)oc1COC(=O)N[C@@H](CCC(=O)C=[N+]=[N-])C(=O)OC(C)C

>  <U>
%

>  <PLASMA STABILITY Monkey>
0

$$$$

(I) CCOC(=O)[C@H](CCC(=O)C=[N+]=[N-])NC(=O)[C@@H](N)Cc1cc2ccccc2[nH]1
(II) CCOC(=O)[C@H](CCC(=O)C=[N+]=[N-])NC(=O)OCc1oc(=O)oc1C
(Q) Could you check which of I and II has a smaller value for PLASMA STABILITY Monkey? When you have decided, please share the label of that item.
(A) II
